experiment: JC-1 mitochondrial potential readout, lung cancer cells – cell-based, A549, JC-1 fluorescence, basal, 24 h, 100 nL, profiling panel (AID 1138); settings: higher = more signal;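 further: A549 lung adenocarcinoma cells under basal conditions with no added stimulus; test concentration not given here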
Assign z-score to each entry below.

Name the recorded z-score of the item Cc1ccc(F)cc1S(=O)(=O)N[C@@H]1CCN(C(=O)c2ccc(OC(C)C)cc2)C1 in your answer.
0.946

Quick one: give measured z-score for CC(C)(C)N1CC=CC23O[C@@H]4C=CCCOC(=O)C4[C@H]2C(=O)N(CCCO)[C@@H]3C1=O (stereo partly drawn)
-0.754

Answer with the recorded z-score for the compound listed here: COc1ccc([Si](C)(C)[C@@H]2[C@@H](CCO)O[C@]3(C(=O)N(Cc4ccccc4)c4ccc(N5C(=O)COc6ccccc65)cc43)[C@H]2C)cc1
-0.081

For CC(C)C[C@@H]1NC(=O)[C@@H]2C[C@H](C(=O)NCCCC[N+](C)(C)C)[C@H](c3cccc(OCCO)c3)N2C1=O , write its z-score.
-0.69

Indicate its recorded z-score; the compound in question is COC(=O)[C@@]1(Cc2ccccc2)[C@H]2c3cc(C(=O)N4CCCC4)n(CCO)c3C[C@H]2CN1C(=O)c1ccccc1
0.841

Give me measured z-score, please, for this compound: CCOC(=O)C[C@H]1[C@H](OC(=O)Cc2ccc3c(c2)OCO3)[C@@H](NC(=O)c2ccccc2)c2cc(OCCCO)ccc2N1C(=O)c1ccccc1
0.673

Tell me its z-score given CN(C)CCCCNC(=O)[C@H]1C[C@H]2C(=O)N[C@@H](CCCC[N+](C)(C)C)C(=O)N2[C@H]1c1cccc(OCCO)c1 as the entry.
-0.312

Give reported z-score value for COC(=O)[C@@]1(Cc2ccc(F)cc2)[C@H]2c3cc(C(=O)N4CCCC4)n(Cc4ccccc4)c3C[C@H]2CN1C(=O)c1ccccc1
-1.23

Answer with the recorded z-score for the compound listed here: COc1ccc([Si](C)(C)[C@@H]2[C@@H](CC(=O)N(CCO)Cc3ccccc3)O[C@]3(C(=O)N(Cc4ccc(N5CCOC5=O)cc4)c4ccccc43)[C@H]2C)cc1
-0.147

Give recorded z-score. CCOc1cc(C(O)C2C=CC3C(=O)NC(=O)C3N2Nc2ccccn2)ccc1O (stereo not drawn)
0.208

State its z-score: CN(C)CCCC[C@@H]1NC(=O)[C@H]2C[C@@H](C(=O)NCCCCCCNC(=O)CS)[C@@H](c3ccc(O)cc3)N2C1=O
-0.685

Please give measured z-score of the following entry: CO[C@H]1O[C@H](CO)[C@@H](OC(=O)Nc2cccc(F)c2)[C@H](OC(=O)Nc2ccc3c(c2)OCO3)[C@H]1OC(=O)Nc1ccc2c(c1)OCO2
-0.358

For CCCC=C(CCC)[C@@H](NS(=O)(=O)CC)c1ccccc1 , write its z-score.
-1.72

Return the recorded z-score value; entry: C=C(CCCC)/C(=C/C[C@@H](OC(=O)c1ccncc1)c1ccccc1OCCO)c1cc(C(=O)OC)ccc1OC
3.24

Please indicate z-score recorded for CCOC(=O)C[C@H]1[C@H](OC(=O)c2ccccc2-c2ccccc2)[C@@H](NC(=O)c2ccccc2)c2cc(OCCCO)ccc2N1C(=O)Cc1ccc(OC)cc1
0.322

Entry CCCNC(=O)[C@@H]1c2ccccc2C(=O)N(CC23CC4CC(CC(C4)C2)C3)[C@H]1c1ccc(CO)cc1 needs its z-score filled in; supply it.
-1.17

Name the recorded z-score of the item CCCC[C@@H](O)C1=C(COc2ccccc2)Cn2c(=O)n(-c3ccccc3)c(=O)n2[C@H]1CO in your answer.
0.363

Let me know recorded z-score for COCCOC(=O)N1C(=O)[C@@]2(c3cc(C#CCCO)ccc31)[C@H](c1ccc(OCCO)cc1)N1[C@H](c3ccccc3)[C@H](c3ccccc3)OC(=O)[C@H]1[C@@H]2C(=O)N1CCc2cc(OC)c(OC)cc2C1 , thanks.
-0.633

Return z-score (reported value) for this compound: O=C1c2ccccc2C(=O)C2CC([C@H]3Oc4ccccc4S(=O)(=O)N4CCC[C@@H]34)=CCC12 (stereo partly drawn)
-0.309

Tell me measured z-score for CC1CC/C=C\[C@H]2OC34C=CCN(c5ccc(Cl)cc5)C(=O)[C@H]3N(C(CO)C(C)C)C(=O)[C@]4(C)C2C(=O)O1 (stereo partly drawn) please.
0.34

Please give measured z-score of the following entry: O=C1O[C@H](c2ccccc2)[C@H](c2ccccc2)N2[C@H]1[C@@H](C(=O)N1CCCCCCC1)[C@]1(C(=O)Nc3ccccc31)[C@H]2c1ccc(O)cc1
0.0754

Quick one: give measured z-score for O=C1C2C=CC(C(O)c3ccc(Br)cc3)N(Nc3ccccc3)C2C(=O)N1c1ccccc1 (stereo not drawn)
0.0103

Return value of z-score for input COC(=O)C(CC#Cc1ccc2c(c1)[C@]1(C(=O)N2)[C@H](c2ccc(OCCO)cc2)N2[C@H](c3ccccc3)[C@H](c3ccccc3)OC(=O)[C@H]2[C@@H]1C(=O)O)C(=O)OC , no commentary.
0.161

Annotate the compound NC(=O)NCC#Cc1ccc2c(c1)[C@]1(C(=O)N2)[C@H](c2ccc(O)cc2)N2[C@H](c3ccccc3)[C@H](c3ccccc3)OC(=O)[C@H]2[C@@H]1C(=O)NC[C@H](O)c1ccccc1 with its measured z-score.
0.717

State its z-score: O=C(Nc1cc(Br)ccc1C(=O)NCc1cccc(O)c1)c1ccccc1
0.252

Specify measured z-score for COCCOC(=O)N1C(=O)[C@@]2(c3cc(C#CCC(C(=O)OC)C(=O)OC)ccc31)[C@H](C(=O)N1CCCCCCC1)[C@H]1C(=O)O[C@H](c3ccccc3)[C@H](c3ccccc3)N1[C@@H]2c1ccc(O)cc1 .
-0.909

Entry CC(C)NC(=O)[C@@]1(Cc2ccccc2I)c2ccccc2C(=O)N(Cc2ccccc2C(F)(F)F)[C@H]1c1ccc(CO)cc1 needs its z-score filled in; supply it.
1.29

Quick one: give measured z-score for CN(C)CCCNC(=O)[C@@]1(Cc2ccccc2I)c2ccccc2C(=O)N(Cc2ccccc2Cl)[C@H]1c1ccc(CO)cc1
-1.18
